Measured EC30 accompanies every entry in the list below.
# assaySystem: UniProt P40238
# Sequence (P40238 whole entry): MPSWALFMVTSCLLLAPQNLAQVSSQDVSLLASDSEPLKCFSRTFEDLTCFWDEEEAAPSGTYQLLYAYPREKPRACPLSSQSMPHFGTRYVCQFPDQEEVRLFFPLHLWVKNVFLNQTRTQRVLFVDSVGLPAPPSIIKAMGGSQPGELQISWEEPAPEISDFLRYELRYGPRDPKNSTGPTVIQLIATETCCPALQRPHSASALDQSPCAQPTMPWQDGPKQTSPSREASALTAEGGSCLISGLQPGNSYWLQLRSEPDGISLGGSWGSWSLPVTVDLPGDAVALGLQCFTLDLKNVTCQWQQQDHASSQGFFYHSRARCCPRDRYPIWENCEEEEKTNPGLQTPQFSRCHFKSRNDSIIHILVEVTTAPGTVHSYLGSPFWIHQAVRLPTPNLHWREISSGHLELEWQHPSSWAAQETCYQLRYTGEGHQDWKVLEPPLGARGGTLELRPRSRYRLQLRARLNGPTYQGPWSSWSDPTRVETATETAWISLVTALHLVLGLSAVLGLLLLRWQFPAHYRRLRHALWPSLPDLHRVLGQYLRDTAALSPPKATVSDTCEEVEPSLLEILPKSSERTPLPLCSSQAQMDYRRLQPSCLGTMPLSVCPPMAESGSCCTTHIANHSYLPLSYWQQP
# protocolNotes: Agonist activity at recombinant human c-Mpl receptor transfected in BA/F3 cells assessed as increase in cell proliferation by cell counting analysis
# Type: cell-based
# conditionLabel: baf3
experimentalReadout: EC30

> print(dat)
                    compoundstructurestring  assayresult
1  C[C@@H]1CCCN1Cc1sc(NC(=O)c2cnc(N3CCC(C(=O)O)CC3)cn2)nc1-c1cc(Cl)cs1.Cl.Cl      0.35 µM
2  CCC[C@@H]1CCCN1Cc1sc(NC(=O)c2cnc(N3CCC(C(=O)O)CC3)cn2)nc1-c1ccc(OC)c(C(F)(F)F)c1.Cl.Cl      > 10 µM
3  COc1ccc(-c2nc(NC(=O)c3cnc(N4CCC(C(=O)O)CC4)cn3)sc2CN2CCCC(C)(C)C2)cc1C(F)(F)F.Cl.Cl      > 10 µM
4  C[C@@H]1CCCN1Cc1sc(NC(=O)c2cnc(N3CCC(C(=O)O)CC3)cn2)nc1-c1ccc(Cl)c(C(F)(F)F)c1.Cl.Cl      1.72 µM
5  C[C@@H]1CCCN1Cc1sc(NC(=O)c2cnc(N3CCC(C(=O)O)CC3)cn2)nc1-c1cc(Cl)cc(C(F)(F)F)c1.Cl.Cl      0.15 µM
6  COc1ccc(-c2nc(NC(=O)c3cnc(N4CCC(C(=O)O)CC4)cn3)sc2CN2CCC[C@H]2C)cc1C(F)(F)F.Cl.Cl      > 10 µM
7  CC[C@@H]1CCCN1Cc1sc(NC(=O)c2cnc(N3CCC(C(=O)O)CC3)cn2)nc1-c1ccc(OC)c(C(F)(F)F)c1.Cl.Cl      > 10 µM
8  COc1ccc(-c2nc(NC(=O)c3cnc(N4CCC(C(=O)O)CC4)cn3)sc2CN2CCC[C@@H]2C)cc1C(F)(F)F.Cl.Cl      > 10 µM
